Listed next: entries and their corresponding Tr (herbicidal effect index on crop).
system: wheat (Tr); test: Test Example 5: selectivity for a crop plant by soil treatment in upland field; format: in vivo; design: scale not given here; details: dose 25 gai/10a, 21st day after treatment, index per Table 44
Endpoint: Tr (herbicidal effect index on crop)

[
  {
    "Compound": "CC(C)C(c1cncnc1C(F)(F)F)N(C)C(=O)CCc1ccccc1 (racemic)",
    "Endpoint": "Tr (herbicidal effect index on crop)",
    "Test Value": 3
  },
  {
    "Compound": "CC(C)C(c1cncnc1C(F)(F)F)N(C)C(=O)COc1ccc(Cl)cc1 (racemic)",
    "Endpoint": "Tr (herbicidal effect index on crop)",
    "Test Value": 0
  },
  {
    "Compound": "CCC(C)C(c1cncnc1C(F)(F)F)N(C)C(=O)Cc1ccc(F)cc1 (mixture of isomers)",
    "Endpoint": "Tr (herbicidal effect index on crop)",
    "Test Value": 3
  },
  {
    "Compound": "CC(C)C(c1cncnc1C(F)(F)F)N(C)C(=O)Cc1ccccc1F (racemic)",
    "Endpoint": "Tr (herbicidal effect index on crop)",
    "Test Value": 2
  },
  {
    "Compound": "CCN(C(=O)Cc1ccc(Cl)cc1)C(c1cncnc1C(F)(F)F)C(C)C (racemic)",
    "Endpoint": "Tr (herbicidal effect index on crop)",
    "Test Value": 1
  },
  {
    "Compound": "CC#Cc1ccc(CC(=O)N(C)C(c2cncnc2C(F)(F)F)C(C)C)cc1 (racemic)",
    "Endpoint": "Tr (herbicidal effect index on crop)",
    "Test Value": 1
  },
  {
    "Compound": "COCc1ccc(CC(=O)N(C)C(c2cncnc2C(F)(F)F)C(C)C)cc1 (racemic)",
    "Endpoint": "Tr (herbicidal effect index on crop)",
    "Test Value": 2
  },
  {
    "Compound": "CCN(C(=O)Cc1ccc(C#N)cc1)C(c1cncnc1C(F)(F)F)C(C)C (racemic)",
    "Endpoint": "Tr (herbicidal effect index on crop)",
    "Test Value": 1
  }
]

###

system: wheat (Tr); experiment: Test Example 5: selectivity for a crop plant by soil treatment in upland field; assay type: in vivo; set-up: scale not given here; conditions: dose 25 gai/10a, 21st day after treatment, index per Table 44
Endpoint: Tr (herbicidal effect index on crop)

[
  {
    "Compound": "CC(C)C(c1cncnc1C(F)(F)F)N(C)C(=O)Cc1cccc(Br)c1 (racemic)",
    "Endpoint": "Tr (herbicidal effect index on crop)",
    "Test Value": 4
  },
  {
    "Compound": "CC(C)C(c1cncnc1C(F)(F)F)N(C(=O)Cc1ccc(F)cc1)C1CC1 (racemic)",
    "Endpoint": "Tr (herbicidal effect index on crop)",
    "Test Value": 2
  },
  {
    "Compound": "CCC(C)C(c1cncnc1C(F)(F)F)N(C)C(=O)Cc1ccc(C)cc1 (mixture of isomers)",
    "Endpoint": "Tr (herbicidal effect index on crop)",
    "Test Value": 2
  },
  {
    "Compound": "CC(C)C(c1cncnc1C(F)(F)Cl)N(C)C(=O)Cc1ccccc1 (racemic)",
    "Endpoint": "Tr (herbicidal effect index on crop)",
    "Test Value": 1
  },
  {
    "Compound": "Cc1cccc(CC(=O)N(C)C(c2cncnc2C(F)(F)F)C(C)C)c1 (racemic)",
    "Endpoint": "Tr (herbicidal effect index on crop)",
    "Test Value": 1
  },
  {
    "Compound": "CCC(C)C(c1cncnc1C(F)(F)F)N(C)C(=O)Cc1ccc(Cl)cc1 (mixture of isomers)",
    "Endpoint": "Tr (herbicidal effect index on crop)",
    "Test Value": 1
  },
  {
    "Compound": "CC(C)C(c1cncnc1C(F)(F)F)N(C)C(=O)Cc1ccc(I)cc1 (racemic)",
    "Endpoint": "Tr (herbicidal effect index on crop)",
    "Test Value": 0
  }
]

###

Test system: corn (Ze)
Assay: Test Example 5: selectivity for a crop plant by soil treatment in upland field
Assay type: in vivo
Parameters: scale not given here
Conditions: dose 25 gai/10a, 21st day after treatment, index per Table 44
Method: In a 80 cm^2 plastic pot, upland soil was filled, and seeds of barnyard grass (Ec), green foxtail (Se), soybean (G1), wheat (Tr) and corn (Ze) were sown and covered with soil. A wettable powder prepared in accordance with Formulation Example 1 was diluted with water and uniformly applied to the soil surface by a small size spray at a rate of 100 l per 10 ares so that the dose of the active ingredient would be 25 g per 10 ares. […]

[
  {
    "Molecule": "CC(C)C(c1cncnc1C(F)(F)F)N(C)C(=O)Cc1ccc(OC(F)(F)F)cc1 (racemic)",
    "Ze (herbicidal effect index on crop)": 0
  },
  {
    "Molecule": "CC(C)C(c1cncnc1C(F)(F)F)N(C)C(=O)CCc1ccccc1 (racemic)",
    "Ze (herbicidal effect index on crop)": 2
  },
  {
    "Molecule": "CCC(C)C(c1cncnc1C(F)(F)F)N(C)C(=O)Cc1ccc(C)cc1 (mixture of isomers)",
    "Ze (herbicidal effect index on crop)": 0
  },
  {
    "Molecule": "Cc1ccccc1CC(=O)N(C)C(c1cncnc1C(F)(F)F)C(C)C (racemic)",
    "Ze (herbicidal effect index on crop)": 0
  },
  {
    "Molecule": "CC(C)c1ccc(CC(=O)N(C)C(c2cncnc2C(F)(F)F)C(C)C)cc1 (racemic)",
    "Ze (herbicidal effect index on crop)": 2
  },
  {
    "Molecule": "CC(C)C(c1cncnc1C(F)(F)F)N(C)C(=O)Cc1ccc(C#N)cc1 (racemic)",
    "Ze (herbicidal effect index on crop)": 2
  },
  {
    "Molecule": "CC(C)C(c1cncnc1C(F)(F)F)N(C(=O)Cc1ccccc1)C1CC1 (racemic)",
    "Ze (herbicidal effect index on crop)": 1
  },
  {
    "Molecule": "CCN(C(=O)Cc1ccc(C#N)cc1)C(c1cncnc1C(F)(F)F)C(C)C (racemic)",
    "Ze (herbicidal effect index on crop)": 1
  }
]

###

tested on: corn (Ze); assay: Test Example 5: selectivity for a crop plant by soil treatment in upland field; assay type: in vivo; design: scale not given here; details: dose 25 gai/10a, 21st day after treatment, index per Table 44
Listed next: entries and their corresponding Ze (herbicidal effect index on crop).
Endpoint: Ze (herbicidal effect index on crop)

[
  {
    "Molecule": "CN(C(=O)Cc1ccc(Cl)cc1)C(c1cncnc1C(F)(F)F)C(C)(C)C (racemic)",
    "Tested Target": "corn (Ze)",
    "Test Value": 0
  },
  {
    "Molecule": "CC(C)C(c1cncnc1C(F)(F)F)N(C(=O)Cc1ccc(F)cc1)C1CC1 (racemic)",
    "Tested Target": "corn (Ze)",
    "Test Value": 1
  },
  {
    "Molecule": "CCN(C(=O)Cc1ccc(C)cc1)C(c1cncnc1C(F)(F)F)C(C)C (racemic)",
    "Tested Target": "corn (Ze)",
    "Test Value": 0
  },
  {
    "Molecule": "CC#Cc1ccc(CC(=O)N(C)C(c2cncnc2C(F)(F)F)C(C)C)cc1 (racemic)",
    "Tested Target": "corn (Ze)",
    "Test Value": 0
  },
  {
    "Molecule": "Cc1ncncc1C(C(C)C)N(C)C(=O)Cc1ccc(Cl)cc1 (racemic)",
    "Tested Target": "corn (Ze)",
    "Test Value": 3
  },
  {
    "Molecule": "CN(C(=O)Cc1ccc(F)cc1)C(c1cncnc1C(F)(F)F)C(C)(C)C (racemic)",
    "Tested Target": "corn (Ze)",
    "Test Value": 0
  },
  {
    "Molecule": "CCC(C)C(c1cncnc1C(F)(F)F)N(C)C(=O)Cc1ccc(Cl)cc1 (mixture of isomers)",
    "Tested Target": "corn (Ze)",
    "Test Value": 0
  },
  {
    "Molecule": "COCc1ccc(CC(=O)N(C)C(c2cncnc2C(F)(F)F)C(C)C)cc1 (racemic)",
    "Tested Target": "corn (Ze)",
    "Test Value": 2
  },
  {
    "Molecule": "CC(C)Oc1ccc(CC(=O)N(C)C(c2cncnc2C(F)(F)F)C(C)C)cc1 (racemic)",
    "Tested Target": "corn (Ze)",
    "Test Value": 0
  },
  {
    "Molecule": "CC(C)C(c1cncnc1C(F)(F)F)N(C)C(=O)Cc1ccccc1F (racemic)",
    "Tested Target": "corn (Ze)",
    "Test Value": 2
  },
  {
    "Molecule": "CC(C)C(c1cncnc1C(F)(F)F)N(C)C(=O)Cc1ccc(Cl)c(Cl)c1 (racemic)",
    "Tested Target": "corn (Ze)",
    "Test Value": 0
  },
  {
    "Molecule": "CCCN(C(=O)Cc1ccc(C#N)cc1)C(c1cncnc1C(F)(F)F)C(C)C (racemic)",
    "Tested Target": "corn (Ze)",
    "Test Value": 0
  },
  {
    "Molecule": "CCN(C(=O)Cc1ccc(Cl)cc1)C(c1cncnc1C(F)(F)F)C(C)C (racemic)",
    "Tested Target": "corn (Ze)",
    "Test Value": 0
  },
  {
    "Molecule": "CCCN(C(=O)Cc1ccc(Cl)cc1)C(c1cncnc1C(F)(F)F)C(C)C (racemic)",
    "Tested Target": "corn (Ze)",
    "Test Value": 3
  },
  {
    "Molecule": "CCC(c1cncnc1C(F)(F)F)N(C)C(=O)Cc1ccc(F)cc1 (racemic)",
    "Tested Target": "corn (Ze)",
    "Test Value": 1
  },
  {
    "Molecule": "CCC(C)C(c1cncnc1C(F)(F)F)N(C)C(=O)Cc1ccc(F)cc1 (mixture of isomers)",
    "Tested Target": "corn (Ze)",
    "Test Value": 0
  }
]
